# TARGET_UNDER_TEST: Alpha-bungarotoxin (Bungarus multicinctus) (UniProt P60615)
# Sequence (P60615 whole entry, looked up): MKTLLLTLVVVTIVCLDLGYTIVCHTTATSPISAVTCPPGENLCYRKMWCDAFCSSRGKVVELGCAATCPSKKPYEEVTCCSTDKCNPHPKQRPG
# EXPERIMENTAL_PROTOCOL: alpha-bungarotoxin binders on microarray, profiling panel, artefact control for SMM control protein annotation, biochemical, small-molecule microarray, Alexa647 label, 635/667 nm fluorescence (AID 1117)
# STATED_CONDITIONS: alpha-BTX-A647 binding fluorescence, higher = more signal
Lab note: anything with composite z-score at or over 0.9 counts as fulfilled; the rest go in not fulfilled.

Solved entries:
{"MOLECULE": "C=CCNC(=O)[C@@H]1[C@H]2C(=O)O[C@H](c3ccccc3)[C@H](c3ccccc3)N2[C@H](c2ccc(OCCO)cc2)[C@@]12C(=O)Nc1ccccc12", "CLASS_LABEL": "fulfilled"}
{"MOLECULE": "COC(=O)[C@@]1(Cc2ccc(OC)cc2)[C@H]2c3cc(C(=O)N4CCCC4)n(Cc4ccccn4)c3C[C@H]2CN1C(=O)c1ccccc1", "CLASS_LABEL": "not fulfilled"}
{"MOLECULE": "COc1ccc(NN2C(C(O)c3ccc(OC)c(OCc4ccccc4)c3)C=CC3C(=O)N(C4CCCCC4)C(=O)C32)cc1 (stereo not given)", "CLASS_LABEL": "fulfilled"}
{"MOLECULE": "CCC(CC)C(O)C1C=CC2C(=O)N(c3ccccc3)C(=O)C2N1Nc1ccc(C#N)cc1 (stereo not given)", "CLASS_LABEL": "fulfilled"}
{"MOLECULE": "CCCCCN1CC=CC23O[C@@H]4/C=C\\CCCOC(=O)C4[C@H]2C(=O)N(CCCCCCO)[C@@H]3C1=O (stereo not given in full)", "CLASS_LABEL": "not fulfilled"}

Entry CCN(CC)c1ccc(N2CC=CC34O[C@@H]5C=CCCOC(=O)C5[C@H]3C(=O)N(CCCCCO)[C@@H]4C2=O)cc1 (stereo not given in full) : is its composite z-score no less than 0.9?
not fulfilled

Item `C=C[C@@H](COC(C)=O)N(Cc1ccccc1[N+](=O)[O-])S(=O)(=O)c1ccc(Br)cc1` with composite z-score of 0.9 or above?
not fulfilled

Confirm if composite z-score reported for the molecule O=C1C2C=CC(C(O)c3ccc(-c4ccccc4)s3)N(n3cnnc3)C2C(=O)N1Cc1ccccc1 (stereo not given) is 0.9 or above.
not fulfilled

API: above_or_equal(metric=composite z-score, cutoff=0.9) for item `NCCCCCNC(=O)[C@H]1C[C@H]2C(=O)NCC(=O)N2[C@H]1c1cccc(OCCO)c1`
fulfilled

Quick check, composite z-score >= 0.9? `O=C(CS)NCCCCCCNC(=O)[C@H]1C[C@H]2C(=O)N3CCC[C@H]3C(=O)N2[C@H]1c1cccc(OCCO)c1`
not fulfilled

Is composite z-score for `O=C1O[C@@H](c2ccccc2)[C@@H](c2ccccc2)N2[C@@H](c3ccc(OCCO)cc3)[C@]3(C(=O)Nc4ccccc43)[C@@H](C(=O)Nc3nc4ccccc4s3)[C@H]12` at or above 0.9?
fulfilled

Say whether `COC(=O)[C@@]1(Cc2ccccc2N=[N+]=[N-])COC(c2ccc(OCCCO)cc2)=N1` shows composite z-score of 0.9 or more.
fulfilled

Quick check: does `CO[C@H]1O[C@H](CO)[C@@H](OC(=O)Nc2ccc3c(c2)OCO3)[C@H](OC(=O)Nc2ccccc2)[C@H]1OC(=O)Nc1ccccc1` have composite z-score greater than or equal to 0.9?
fulfilled

Is composite z-score at least 0.9? Consider `COC(=O)[C@@]1(Cc2ccc(OC)cc2)[C@H]2c3cc(C(=O)N(C)C)n(Cc4c(OC)[nH]cc(C)c4=O)c3C[C@H]2CN1C(=O)c1ccccc1`
not fulfilled

----------
# TARGET_UNDER_TEST: Homeobox protein Hox-A13 (Mus musculus) (UniProt Q62424)
# Sequence (Q62424 whole entry, looked up): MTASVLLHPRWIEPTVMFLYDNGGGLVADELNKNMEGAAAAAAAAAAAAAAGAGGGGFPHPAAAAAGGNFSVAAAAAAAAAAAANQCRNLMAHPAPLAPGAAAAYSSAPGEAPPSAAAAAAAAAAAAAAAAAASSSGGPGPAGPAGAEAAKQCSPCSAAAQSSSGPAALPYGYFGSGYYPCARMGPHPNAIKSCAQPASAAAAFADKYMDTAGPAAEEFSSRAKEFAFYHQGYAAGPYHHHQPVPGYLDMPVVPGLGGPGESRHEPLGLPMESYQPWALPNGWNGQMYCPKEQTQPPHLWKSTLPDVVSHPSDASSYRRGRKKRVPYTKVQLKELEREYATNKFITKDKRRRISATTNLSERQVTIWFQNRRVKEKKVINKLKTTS
# EXPERIMENTAL_PROTOCOL: inhibitors of HoxA13-DNA binding, primary screen, biochemical, fluorescence polarization, labeled oligonucleotide (AID 1185)
# STATED_CONDITIONS: 15 min, higher = more signal, called active from +8 up or from −8 down
PARAMETER_MEASURED: z-score
Give your answer as a number; write no unit.

Example compounds with recorded z-score:
{"COMPOUND": "COc1ccc(C#Cc2ccc3c(c2)[C@]2(C(=O)N3)[C@H](C(=O)NC[C@H](O)c3ccccc3)[C@H]3C(=O)O[C@H](c4ccccc4)[C@H](c4ccccc4)N3[C@@H]2c2ccccc2OCCO)cc1", "OBSERVED_VALUE": -2.33}
{"COMPOUND": "C=C(COC)C(=O)CC[C@@H](OC(=O)c1cccnc1)c1ccc(CO)o1", "OBSERVED_VALUE": -4.3}
{"COMPOUND": "COCCOC(=O)N1C(=O)[C@@]2(c3ccccc31)[C@H](C(=O)NC[C@H](O)c1ccccc1)[C@H]1C(=O)O[C@H](c3ccccc3)[C@H](c3ccccc3)N1[C@@H]2c1ccc(OCCO)cc1", "OBSERVED_VALUE": -4.33}
{"COMPOUND": "O=C1C[C@@](C(=O)NC2CC2)(c2ccc([N+](=O)[O-])cc2)[C@@H](c2ccc(CO)cc2)N1CC12CC3CC(CC(C3)C1)C2", "OBSERVED_VALUE": -5.08}
{"COMPOUND": "COCC(=C=CC[C@H](O)c1ccc(OCCO)cc1)C[C@H](O)c1cc(Cl)cc(Cl)c1O", "OBSERVED_VALUE": -4.13}
{"COMPOUND": "CC(C)(C)N1CC=CC23O[C@@H]4/C=C\\CCCOC(=O)C4[C@H]2C(=O)N(CCO)[C@@H]3C1=O (some centres not stated)", "OBSERVED_VALUE": -4.95}

Let us move to another entry and its z-score.
Which z-score is listed for COc1ccc(C(O)C2C=CC3C(=O)N(C)C(=O)C3N2Nc2ccccc2)cc1OCc1ccccc1 (configuration not stated) ?
-4.69

----------
# EXPERIMENTAL_PROTOCOL: small-molecule binders of probe aNOTCH2, primary screen, biochemical, small-molecule microarray, 635/667 nm fluorescence (AID 1121);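 also: score merges feature fluorescence read at 667 nm with its signal to noise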
# STATED_CONDITIONS: higher = more signal
Please enter True where composite z-score is greater than or equal to 0.01, and False where it is lower.

As a guide, the following entries are already answered.
{"MOLECULE": "COC(=O)C(CC#Cc1ccc2c(c1)[C@]1(C(=O)N2)[C@H](c2ccc(OCCO)cc2)N2[C@H](c3ccccc3)[C@H](c3ccccc3)OC(=O)[C@H]2[C@@H]1C(=O)NC[C@H](O)c1ccccc1)C(=O)OC", "CLASS_LABEL": "False"}
{"MOLECULE": "CC(C)CNC(=O)[C@@H]1c2ccccc2C(=O)N(Cc2cc(C(F)(F)F)cc(C(F)(F)F)c2)[C@H]1c1ccc(CO)cc1", "CLASS_LABEL": "True"}
{"MOLECULE": "C=CCC(OC(C)=O)[C@@H]1[C@@H](N(Cc2ccc(-c3ccccc3)cc2)C(=O)Cc2ccc(F)cc2)c2cc(OCCCO)ccc2N1C(=O)c1ccc2ccccc2n1 (stereo partly drawn)", "CLASS_LABEL": "False"}
{"MOLECULE": "CC(c1ccccc1)C(O)C1C=CC2C(=O)NC(=O)C2N1Nc1ccccn1 (stereo not drawn)", "CLASS_LABEL": "False"}
{"MOLECULE": "CCC(CC)C(O)C1C=CC2C(=O)N(c3ccccc3)C(=O)C2N1Nc1ccc(C#N)cc1 (stereo not drawn)", "CLASS_LABEL": "True"}
{"MOLECULE": "COC(=O)[C@@]1(Cc2ccc(OC)cc2)[C@H]2c3cc(C(=O)N4CCCC4)n(CCc4c[nH]c5cc(F)ccc45)c3C[C@H]2CN1C(=O)c1ccccc1", "CLASS_LABEL": "False"}

hey, is composite z-score for this one >= 0.01? `CC(C)NC(=O)[C@@H]1c2ccccc2C(=O)N(Cc2ccccc2Cl)[C@H]1c1ccc(CO)cc1`
False

Please tell me: is the molecule `O=C1O[C@@H](c2ccccc2)[C@@H](c2ccccc2)N2[C@@H](c3ccc(OCCO)cc3)[C@]3(C(=O)Nc4ccc(C#CC5=CCCCC5)cc43)[C@@H](C(=O)O)[C@H]12` at or over 0.01 in terms of composite z-score?
True

Would you say `CC(C)CNC(=O)[C@@]1(c2ccc([N+](=O)[O-])cc2)CC(=O)N(CC23CC4CC(CC(C4)C2)C3)[C@@H]1c1ccc(CO)cc1I` shows composite z-score at minimum 0.01?
False

Is composite z-score at least 0.01? Consider `C=CC[C@@]1(C(=O)N2CCOCC2)N=C(c2ccc(OCCCO)cc2)O[C@@H]1c1ccccc1N=[N+]=[N-]`
True

Could you tell me if the measured composite z-score of C=CCC(OC(C)=O)[C@@H]1[C@@H](N(Cc2cccc3ccccc23)C(=O)c2ccc(C)cc2)c2cc(OCCCO)ccc2N1C(=O)Cc1ccc(OC)cc1 (stereo partly drawn) reaches 0.01 or more?
False

Is it the case that `O=C1O[C@@H](c2ccccc2)[C@@H](c2ccccc2)N2[C@@H](c3ccc(O)cc3)[C@]3(C(=O)Nc4ccc(C#CC5(O)CCCCCC5)cc43)[C@@H](C(=O)N3CCCCCCC3)[C@H]12` has composite z-score reaching or exceeding 0.01?
True

Say whether `CC(C)(C)OC(=O)CC[C@@]1(C(=O)NCCN2CCOCC2)N=C(c2ccc(OCCCO)cc2)O[C@@H]1c1ccccc1` shows composite z-score of 0.01 or more.
True
